Listing: Liver weight of selected compounds
Assay: Body and organ weight, hepatic lipid content
Type: in vivo, female C57BL/6 mice
Conditions: oral dose 100 µg/kg bw; day 3
Procedure: Animals. Eight-week-old female C57BL/6 mice (Harlan laboratories, Venray, the Netherlands) were randomly assigned to treatment groups (six animals per group) and allowed to acclimate for 1.5 weeks. […] Compound analysis. […] Because the samples typically contained high levels of the analytes, only a small fraction was evaporated and analyzed. […] For lipid determination, samples were evaporated to dryness after the extraction step, and the amount of lipids was determined gravimetrically. […]
readout-type: Liver weight

{"compound": "Clc1cc2c(cc1Cl)Oc1cc(Cl)c(Cl)cc1O2 [TCDD, 2,3,7,8-tetrachlorodibenzodioxin, reference compound]", "measured-value": "6.09 ± 0.44 % of bw"}
{"compound": "Clc1cc2c(cc1Cl)Oc1c(cc(Cl)c(Cl)c1Cl)O2 [PeCDD, 1,2,3,7,8-pentachlorodibenzodioxin]", "measured-value": "5.83 ± 0.50 % of bw"}
{"compound": "Clc1ccc(-c2cc(Cl)c(Cl)c(Cl)c2)cc1Cl [PCB-126, 3,3´,4,4´,5-pentachlorobiphenyl]", "measured-value": "5.07 ± 0.19 % of bw"}
{"compound": "Clc1cc2oc3c(Cl)c(Cl)c(Cl)cc3c2cc1Cl [Congener 4-PeCDF, 2,3,4,7,8-pentachlorodibenzofuran]", "measured-value": "5.94 ± 0.27 % of bw"}
